// reported Disease Control (%) SEPTTR-184 1DP for each item listed
Tested on: Zymoseptoria tritici (SEPTTR-184)
Test: Cyp51 dsRNA tile (fragment) foliar application bioassay (Example 6)
Format: in vivo
Settings: 1 day protectant; rate 12.5 ppm; average of 2 trials
Method: The 200 ppm concentration for each treatment was prepared by adding the calculated volume of the corresponding dsRNA solution in TE buffer. […] A non-target dsRNA control (YFP), a TE/phosphate buffer control, disease pressure control, and clean plant control were included. These plants were inoculated with an aqueous spore suspension of Zymoseptoria tritici either prior to or after fungicidal treatments. […]

molecule	Disease Control (%) SEPTTR-184 1DP
MgCyp51-T12: dsRNA tile of Zymoseptoria tritici Cyp51, 138 bp, location 1377-1514 (nucleic acid, listed as Zymoseptoria tritici) TGGCTACGGCCTGGTAAGCAAGGGCGCGGCGTCGCCATACTTACCCTTTGGTGCGGGACGACACAGATGTATCGGCGAGCAATTCGCGTACGTGCAATTGCAGACCATTACAGCGACGATGGTTCGCGATTTCAAGTT	64
MgCyp51-T7: dsRNA tile of Zymoseptoria tritici Cyp51, 111 bp, location 1490-1600 (nucleic acid, listed as Zymoseptoria tritici, long dsRNA tile, purified, chemistry not given here) CGACGATGGTTCGCGATTTCAAGTTTTACAATGTGGATGGCAGCGACAACGTGGTGGGTACGGATTACAGCAGTTTGTTCAGCCGGCCGCTGTCGCCGGCAGTAGTAAAGT	64
